The following binders are listed with their measured FGFR4 Kinase % Inhibition values.
- tgt: FGFR4 Kinase (UniProt P22455 460-802, limits assumed)
- Sequence (P22455 460-802 limits assumed): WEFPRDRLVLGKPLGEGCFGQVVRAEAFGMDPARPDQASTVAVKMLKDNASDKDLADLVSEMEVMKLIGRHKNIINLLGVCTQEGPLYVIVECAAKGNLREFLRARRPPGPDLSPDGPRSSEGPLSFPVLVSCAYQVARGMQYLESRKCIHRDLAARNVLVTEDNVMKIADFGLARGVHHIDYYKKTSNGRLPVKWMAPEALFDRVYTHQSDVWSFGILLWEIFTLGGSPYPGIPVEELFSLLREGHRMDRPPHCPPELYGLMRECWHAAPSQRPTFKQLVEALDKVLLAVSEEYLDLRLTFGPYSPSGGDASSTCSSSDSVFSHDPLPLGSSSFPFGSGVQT
- test: cell-based or functional assay
*: point of attachment. Palmitoyl = CCCCCCCCCCCCCCCC(=O)*

binder | FGFR4 Kinase % Inhibition, %
Palmitoyl-KFNLPLGAYKKP-NH2 (SMILES CCCCCCCCCCCCCCCC(=O)N[C@@H](CCCCN)C(=O)N[C@@H](Cc1ccccc1)C(=O)N[C@@H](CC(N)=O)C(=O)N[C@@H](CC(C)C)C(=O)N1CCC[C@H]1C(=O)N[C@@H](CC(C)C)C(=O)NCC(=O)N[C@@H](C)C(=O)N[C@@H](Cc1ccc(O)cc1)C(=O)N[C@@H](CCCCN)C(=O)N[C@@H](CCCCN)C(=O)N1CCC[C@H]1C(N)=O) [Peptide 8: Palm-Lys-Phe-Asn-Leu-Pro-Leu-Gly-Ala-Tyr-Lys-Lys-Pro-NH2] | 89.5
Palmitoyl-KFNLPAGNYKKP-NH2 (SMILES CCCCCCCCCCCCCCCC(=O)N[C@@H](CCCCN)C(=O)N[C@@H](Cc1ccccc1)C(=O)N[C@@H](CC(N)=O)C(=O)N[C@@H](CC(C)C)C(=O)N1CCC[C@H]1C(=O)N[C@@H](C)C(=O)NCC(=O)N[C@@H](CC(N)=O)C(=O)N[C@@H](Cc1ccc(O)cc1)C(=O)N[C@@H](CCCCN)C(=O)N[C@@H](CCCCN)C(=O)N1CCC[C@H]1C(N)=O) [Peptide 6: Palm-Lys-Phe-Asn-Leu-Pro-Ala-Gly-Asn-Tyr-Lys-Lys-Pro-NH2] | 69.8
Palmitoyl-KANLPLGNYKKP-NH2 (SMILES CCCCCCCCCCCCCCCC(=O)N[C@@H](CCCCN)C(=O)N[C@@H](C)C(=O)N[C@@H](CC(N)=O)C(=O)N[C@@H](CC(C)C)C(=O)N1CCC[C@H]1C(=O)N[C@@H](CC(C)C)C(=O)NCC(=O)N[C@@H](CC(N)=O)C(=O)N[C@@H](Cc1ccc(O)cc1)C(=O)N[C@@H](CCCCN)C(=O)N[C@@H](CCCCN)C(=O)N1CCC[C@H]1C(N)=O) [Peptide 2: Palm-Lys-Ala-Asn-Leu-Pro-Leu-Gly-Asn-Tyr-Lys-Lys-Pro-NH2] | 96.4
Palmitoyl-KFNLPLGNYKKA-NH2 (SMILES CCCCCCCCCCCCCCCC(=O)N[C@@H](CCCCN)C(=O)N[C@@H](Cc1ccccc1)C(=O)N[C@@H](CC(N)=O)C(=O)N[C@@H](CC(C)C)C(=O)N1CCC[C@H]1C(=O)N[C@@H](CC(C)C)C(=O)NCC(=O)N[C@@H](CC(N)=O)C(=O)N[C@@H](Cc1ccc(O)cc1)C(=O)N[C@@H](CCCCN)C(=O)N[C@@H](CCCCN)C(=O)N[C@@H](C)C(N)=O) [Peptide 12: Palm-Lys-Phe-Asn-Leu-Pro-Leu-Gly-Asn-Tyr-Lys-Lys-Ala-NH2] | 42.3
Palmitoyl-KFNLPLGNYKKP-NH2 (SMILES CCCCCCCCCCCCCCCC(=O)N[C@@H](CCCCN)C(=O)N[C@@H](Cc1ccccc1)C(=O)N[C@@H](CC(N)=O)C(=O)N[C@@H](CC(C)C)C(=O)N1CCC[C@H]1C(=O)N[C@@H](CC(C)C)C(=O)NCC(=O)N[C@@H](CC(N)=O)C(=O)N[C@@H](Cc1ccc(O)cc1)C(=O)N[C@@H](CCCCN)C(=O)N[C@@H](CCCCN)C(=O)N1CCC[C@H]1C(N)=O) [Peptide 1: Palm-Lys-Phe-Asn-Leu-Pro-Leu-Gly-Asn-Tyr-Lys-Lys-Pro-NH2] | 38.7
Palmitoyl-KFNAPLGNYKKP-NH2 (SMILES CCCCCCCCCCCCCCCC(=O)N[C@@H](CCCCN)C(=O)N[C@@H](Cc1ccccc1)C(=O)N[C@@H](CC(N)=O)C(=O)N[C@@H](C)C(=O)N1CCC[C@H]1C(=O)N[C@@H](CC(C)C)C(=O)NCC(=O)N[C@@H](CC(N)=O)C(=O)N[C@@H](Cc1ccc(O)cc1)C(=O)N[C@@H](CCCCN)C(=O)N[C@@H](CCCCN)C(=O)N1CCC[C@H]1C(N)=O) [Peptide 4: Palm-Lys-Phe-Asn-Ala-Pro-Leu-Gly-Asn-Tyr-Lys-Lys-Pro-NH2] | 0
Palmitoyl-KFALPLGNYKKP-NH2 (SMILES CCCCCCCCCCCCCCCC(=O)N[C@@H](CCCCN)C(=O)N[C@@H](Cc1ccccc1)C(=O)N[C@@H](C)C(=O)N[C@@H](CC(C)C)C(=O)N1CCC[C@H]1C(=O)N[C@@H](CC(C)C)C(=O)NCC(=O)N[C@@H](CC(N)=O)C(=O)N[C@@H](Cc1ccc(O)cc1)C(=O)N[C@@H](CCCCN)C(=O)N[C@@H](CCCCN)C(=O)N1CCC[C@H]1C(N)=O) [Peptide 3: Palm-Lys-Phe-Ala-Leu-Pro-Leu-Gly-Asn-Tyr-Lys-Lys-Pro-NH2] | 65.9
Palmitoyl-KFNLALGNYKKP-NH2 (SMILES CCCCCCCCCCCCCCCC(=O)N[C@@H](CCCCN)C(=O)N[C@@H](Cc1ccccc1)C(=O)N[C@@H](CC(N)=O)C(=O)N[C@@H](CC(C)C)C(=O)N[C@@H](C)C(=O)N[C@@H](CC(C)C)C(=O)NCC(=O)N[C@@H](CC(N)=O)C(=O)N[C@@H](Cc1ccc(O)cc1)C(=O)N[C@@H](CCCCN)C(=O)N[C@@H](CCCCN)C(=O)N1CCC[C@H]1C(N)=O) [Peptide 5: Palm-Lys-Phe-Asn-Leu-Ala-Leu-Gly-Asn-Tyr-Lys-Lys-Pro-NH2] | 0
Palmitoyl-KFNLPLGNYAKP-NH2 (SMILES CCCCCCCCCCCCCCCC(=O)N[C@@H](CCCCN)C(=O)N[C@@H](Cc1ccccc1)C(=O)N[C@@H](CC(N)=O)C(=O)N[C@@H](CC(C)C)C(=O)N1CCC[C@H]1C(=O)N[C@@H](CC(C)C)C(=O)NCC(=O)N[C@@H](CC(N)=O)C(=O)N[C@@H](Cc1ccc(O)cc1)C(=O)N[C@@H](C)C(=O)N[C@@H](CCCCN)C(=O)N1CCC[C@H]1C(N)=O) [Peptide 10: Palm-Lys-Phe-Asn-Leu-Pro-Leu-Gly-Asn-Tyr-Ala-Lys-Pro-NH2] | 0
